# ASSAYED SYSTEM: T1, hGP130-his (Sino Biological, Catalog #10974) (human, UniProt P40189 23-619)
# T1 construct: Bought his-tagged cytokine receptor used as SPR analyte; also called human gp130 receptor subunit; IL6 receptor beta subunit; not shown: his tag
# T1 sequence: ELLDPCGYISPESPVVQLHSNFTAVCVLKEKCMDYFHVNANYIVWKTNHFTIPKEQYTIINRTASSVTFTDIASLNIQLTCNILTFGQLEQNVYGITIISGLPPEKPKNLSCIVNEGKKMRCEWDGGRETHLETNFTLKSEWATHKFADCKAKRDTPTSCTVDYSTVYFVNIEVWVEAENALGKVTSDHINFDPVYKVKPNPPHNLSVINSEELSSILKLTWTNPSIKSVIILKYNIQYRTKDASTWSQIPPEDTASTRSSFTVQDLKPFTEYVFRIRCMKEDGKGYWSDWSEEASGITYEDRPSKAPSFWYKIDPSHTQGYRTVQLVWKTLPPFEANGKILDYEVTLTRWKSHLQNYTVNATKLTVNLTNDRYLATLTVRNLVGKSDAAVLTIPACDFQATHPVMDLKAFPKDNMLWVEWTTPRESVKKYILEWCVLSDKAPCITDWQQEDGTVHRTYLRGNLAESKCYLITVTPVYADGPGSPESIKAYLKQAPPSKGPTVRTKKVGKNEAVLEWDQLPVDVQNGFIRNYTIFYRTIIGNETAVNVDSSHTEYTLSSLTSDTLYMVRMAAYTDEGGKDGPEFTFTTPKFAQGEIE
# PROTOCOL DESCRIPTION: SPR Biacore T200, hgp130 arm
The following binders are listed with their measured koff values.

| BINDER | koff |
| --- | --- |
| 15-DR592 (SEQ ID NO. 233), anti-hGP130 Mono-Fc VHH (Fc fusion, Mono-Fc VHH ligand captured on a Protein A chip; not shown: mono-Fc part) QVQLQESGGGSVQAGGSLRLSCTAPGFTSNSCGMDWYRQAPGKEREFVSSISTDGTTGYADSVKGRFTISKDKAKDTVYLQMNSLKPEDTGMYSCKTKDGTIATMELCDFGYWGQGTQVTVSS | 0.0059 s⁻¹ |

With those in mind, consider the next binder.
Per the records, this binder ( 19-DR596 (SEQ ID NO. 237), anti-hGP130 Mono-Fc VHH (Fc fusion, Mono-Fc VHH ligand captured on a Protein A chip; not shown: mono-Fc part) QVQLQESGGGLVQPGGSLRLSCTASGLTFDDSVMGWFRQAPGKGREAVSCISSSGANAFYADSVKGRFTISRDNAKNTLYLQMNSLKPEDTATYYCKRGHACAGYYPIPYDDYWGQGTQVTVSS ) has koff equal to 0.0082 s⁻¹
